- Tested System: HER2 (A775_G776insYVMA) expressing Ba/F3 stable cell line (Homo sapiens, UniProt P04626, DUP772-775, cells depend on it)
- Sequence (P04626 with tags, fused parts or gaps DUP772-775): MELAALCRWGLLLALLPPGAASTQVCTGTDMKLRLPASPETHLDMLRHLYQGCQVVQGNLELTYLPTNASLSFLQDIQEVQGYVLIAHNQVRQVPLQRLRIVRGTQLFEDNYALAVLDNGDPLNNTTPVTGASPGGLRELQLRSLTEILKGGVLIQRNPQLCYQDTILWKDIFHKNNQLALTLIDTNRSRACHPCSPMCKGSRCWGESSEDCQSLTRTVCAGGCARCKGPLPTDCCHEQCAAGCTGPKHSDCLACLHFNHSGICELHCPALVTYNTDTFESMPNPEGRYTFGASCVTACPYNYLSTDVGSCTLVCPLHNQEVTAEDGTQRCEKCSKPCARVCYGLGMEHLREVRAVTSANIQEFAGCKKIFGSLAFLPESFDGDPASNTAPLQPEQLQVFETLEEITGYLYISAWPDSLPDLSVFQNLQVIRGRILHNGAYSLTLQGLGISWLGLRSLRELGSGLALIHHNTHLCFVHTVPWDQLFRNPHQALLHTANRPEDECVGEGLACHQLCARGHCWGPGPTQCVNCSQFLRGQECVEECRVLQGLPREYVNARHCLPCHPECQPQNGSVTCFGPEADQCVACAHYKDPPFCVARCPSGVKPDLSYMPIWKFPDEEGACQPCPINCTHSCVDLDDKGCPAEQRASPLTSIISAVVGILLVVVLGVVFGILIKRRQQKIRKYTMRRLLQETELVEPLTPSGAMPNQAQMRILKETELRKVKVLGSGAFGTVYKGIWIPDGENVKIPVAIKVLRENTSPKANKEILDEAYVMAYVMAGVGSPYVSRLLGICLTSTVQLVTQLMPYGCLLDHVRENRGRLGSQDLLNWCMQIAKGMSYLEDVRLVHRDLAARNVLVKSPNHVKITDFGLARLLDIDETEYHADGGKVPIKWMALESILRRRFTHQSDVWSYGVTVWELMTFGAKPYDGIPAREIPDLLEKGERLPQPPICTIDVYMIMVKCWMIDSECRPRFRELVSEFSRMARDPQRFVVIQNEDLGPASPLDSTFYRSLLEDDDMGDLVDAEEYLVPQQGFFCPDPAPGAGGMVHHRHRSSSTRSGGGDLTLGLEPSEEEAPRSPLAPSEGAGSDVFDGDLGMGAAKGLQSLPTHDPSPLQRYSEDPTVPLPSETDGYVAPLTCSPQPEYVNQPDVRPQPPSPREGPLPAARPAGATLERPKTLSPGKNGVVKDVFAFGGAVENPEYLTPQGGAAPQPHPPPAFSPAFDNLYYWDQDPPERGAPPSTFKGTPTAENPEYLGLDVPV
- Measurement Notes: Cellular proliferation (Alamar Blue) assay, HER2 A775_G776insYVMA Ba/F3
- Assay type: cell-based
- Run Parameters: 72 hr, read-out: YVMA IC50
Where a name gives a salt, the structure may show the parent alone.
GI50 values by entry
Metric: GI50 (nM)

> print(dat)
                                   compound  metric   u  rel  measurement
1  C=CC(=O)Nc1ccc(F)c(-c2nc(Nc3cnn(C)c3)ncc2Cl)c1    GI50  nM    >        10000
2  C=CC(=O)Nc1ccc(F)c(Nc2nc(Nc3cnn(C)c3)ncc2-c2ccncc2)c1    GI50  nM    =          751
3  C=CC(=O)Nc1ccc(F)c(Nc2nc(Nc3cnn(C)c3)ncc2C#Cc2ccccc2)c1    GI50  nM    =          897
4  [2H]C([2H])=CC(=O)Nc1ccc(F)c(Nc2nc(Nc3cnn(C)c3)ncc2-c2ccc(Br)cc2)c1    GI50  nM    =          204
5  C=CC(=O)Nc1cccc(Nc2nc(Nc3cnn(C)c3)ncc2-c2cncc(C(F)F)c2)c1 [Compound 144, trifluoroacetate]    GI50  nM    =           38
6  C=CC(=O)Nc1ccc(F)c(Nc2nc(Nc3cnn(CC(C)(C)O)c3)ncc2-c2ccc(C(F)(F)F)cc2)c1    GI50  nM    =         2010
7  C=CC(=O)Nc1ccc(F)c(Oc2nc(Nc3cnn(CCO)c3)ncc2Cl)c1    GI50  nM    =         1750
8  C=CC(=O)Nc1ccc(F)c(Nc2nc(Nc3cnn(C)c3)ncc2-c2cncc(N(C)C)c2)c1 [Compound 116, trifluoroacetate]    GI50  nM    =          251

* * *

- Tested System: EGFR(D770_N771insSVD) expressing Ba/F3 stable cell line (Homo sapiens, UniProt P00533, DUP768-770, cells depend on it)
- Sequence (P00533 with tags, fused parts or gaps DUP768-770): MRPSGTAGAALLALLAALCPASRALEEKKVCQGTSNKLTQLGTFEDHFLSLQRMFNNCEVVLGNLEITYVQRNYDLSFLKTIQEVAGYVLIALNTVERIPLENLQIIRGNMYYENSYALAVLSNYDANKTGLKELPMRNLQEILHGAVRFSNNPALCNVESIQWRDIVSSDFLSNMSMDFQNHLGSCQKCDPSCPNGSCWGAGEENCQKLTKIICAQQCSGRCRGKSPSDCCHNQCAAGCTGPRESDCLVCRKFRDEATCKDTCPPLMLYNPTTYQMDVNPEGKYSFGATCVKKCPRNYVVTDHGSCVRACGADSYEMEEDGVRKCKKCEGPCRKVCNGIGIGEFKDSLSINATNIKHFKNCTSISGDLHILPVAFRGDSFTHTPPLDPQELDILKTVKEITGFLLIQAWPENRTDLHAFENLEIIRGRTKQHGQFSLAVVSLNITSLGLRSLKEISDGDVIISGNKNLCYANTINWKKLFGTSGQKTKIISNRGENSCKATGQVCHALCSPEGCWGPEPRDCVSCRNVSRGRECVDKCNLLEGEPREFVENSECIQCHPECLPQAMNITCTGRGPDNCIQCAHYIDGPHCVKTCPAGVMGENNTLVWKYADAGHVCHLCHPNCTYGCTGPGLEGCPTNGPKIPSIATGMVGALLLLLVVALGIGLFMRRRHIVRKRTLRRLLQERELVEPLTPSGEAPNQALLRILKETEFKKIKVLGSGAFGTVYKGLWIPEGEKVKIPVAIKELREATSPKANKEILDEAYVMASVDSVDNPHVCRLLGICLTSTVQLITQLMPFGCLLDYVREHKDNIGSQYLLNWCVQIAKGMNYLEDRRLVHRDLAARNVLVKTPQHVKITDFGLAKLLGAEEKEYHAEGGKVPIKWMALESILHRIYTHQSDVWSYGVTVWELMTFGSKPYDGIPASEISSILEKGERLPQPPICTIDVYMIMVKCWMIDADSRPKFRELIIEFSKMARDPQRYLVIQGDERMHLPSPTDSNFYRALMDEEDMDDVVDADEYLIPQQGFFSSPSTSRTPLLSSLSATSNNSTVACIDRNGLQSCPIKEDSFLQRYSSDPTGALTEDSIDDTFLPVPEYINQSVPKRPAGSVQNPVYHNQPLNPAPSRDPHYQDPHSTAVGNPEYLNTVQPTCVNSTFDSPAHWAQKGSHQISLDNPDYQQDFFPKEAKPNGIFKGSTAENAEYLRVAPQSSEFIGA
- Measurement Notes: Cellular proliferation (Alamar Blue) assay, EGFR D770_N771insSVD Ba/F3
- Type: cell-based
- Run Parameters: 72 hr, read-out: D770 IC50
GI50 values by entry
Metric: GI50

> print(dat)
                                   molecule  metric  measurement
1  C=CC(=O)Nc1ccc(F)c(Nc2nc(Nc3cnn(C)c3)ncc2-c2cccc(CN(C)C)c2)c1    GI50      > 10 µM
2  C=CC(=O)Nc1cccc(Oc2nc(Nc3ccccc3Cl)ncc2-c2ccc(C(F)(F)F)cc2)c1    GI50      > 10 µM
3  C=CC(=O)Nc1ccc(OC)c(Oc2nc(Nc3cnn(CCO)c3)ncc2Cl)c1    GI50      > 10 µM
4  C=CC(=O)Nc1cccc2c1ccn2-c1nc(Nc2cnn(C)c2)ncc1-c1ccc(C(F)(F)F)cc1    GI50      > 10 µM
5  C=CC(=O)Nc1cccc(Nc2nc(Nc3cnn(C)c3)ncc2CN(Cc2ccccc2)C(C)=O)c1    GI50       8.8 µM
6  C=CC(=O)Nc1cccc(Nc2nc(Nc3cnn(C)c3)ncc2C(=O)NC(C)c2ccccc2)c1 (centres unmarked)    GI50      9.52 µM
7  C=CC(=O)Nc1ccc(C#Cc2ccccc2)c(Nc2nc(Nc3cnn(C)c3)ncc2Cl)c1    GI50      > 10 µM
8  C=CC(=O)Nc1ccc(F)c(Nc2nc(Nc3cnn(C)c3)ncc2-c2cn[nH]c2)c1    GI50     0.671 µM
